Assay: Half life in C57BL/6 mouse at 2 mg/kg, iv or 5 mg/kg, po administered as single dose measured up to 24 hrs by LC-MS/MS analysis
Assay type: ADME, organism-based
Details: in vivo
Please respond with reported half-life for every item in the list.
Numbers only; they are read as h.

get_value(item= C[C@@H](NC(=O)c1nc(-c2cc(Cl)ccn2)nc(O)c1O)C1CCCCC1 , readout=half-life) returns 3.1

get_value(item= COc1ccnc(-c2nc(O)c(O)c(C(=O)N[C@H](C)C3CCCCC3)n2)c1 , readout=half-life) returns 1.4

get_value(item= C[C@@H](NC(=O)c1nc(-c2nccc3ccccc23)nc(O)c1O)C1CCCCC1 , readout=half-life) returns 1.1

---

Please respond with reported EC50 for every item in the list.
Test system: Human immunodeficiency virus 1
Assay: Antiviral activity against wild-type HIV1 NL4-3 infected in human TZM-bl cells infected with supernatants from virus-infected human MT2 cells treated with compound for 48 to 72 hrs assessed as reduction in viral replication after 2 days by bright Glo-luciferase reporter gene assay based BiCycle assay
Assay type: functional, organism-based
Settings: Human immunodeficiency virus 1, NL4-3, TZM
Numbers only; they are read as µM.

get_value(item= C[C@@H](NC(=O)c1nc(-c2cc(Cl)ccn2)nc(O)c1O)C1CCCCC1 , readout=EC50) returns 0.1

get_value(item= O=C(NCC1CCCCC1)c1nc(-c2ccccn2)nc(O)c1O , readout=EC50) returns 1.2

get_value(item= O=C(NCCC1CCCCC1)c1nc(-c2ccccn2)nc(O)c1O , readout=EC50) returns 2.3

The origin of these recorded values is ChEMBL document CHEMBL4613292.
